FYI, the data here is from the Immune Epitope Database (IEDB).

Target: HLA-B*15:01
Experiment: IEDB peptide-MHC binding, purified MHC/direct/fluorescence; filed as Kd, often an IC50 or EC50 that approximates it; bounds were set here for any values at or beyond the usual limits of such assays
Conditions: source organism: Vibrio cholerae
pKd: −log10 of the molar value.
quantity kind: pKd

> print(dat)
    sequence  recorded.result
1  EGIEGRIAY             6.51

====

Biological target: HLA-B*35:01
Experiment: IEDB peptide-MHC binding, purified MHC/competitive/radioactivity; filed as Kd, often an IC50 or EC50 that approximates it; bounds were set here for any values at or beyond the usual limits of such assays
Conditions: source organism: Triticum aestivum
quantity kind: Kd (nM)

> print(dat)
    sequence       target  result.units  recorded.result
1  QPFPPQQPY  HLA-B*35:01            nM              304
2   YPQPQPQY  HLA-B*35:01            nM              472
3   IPCMDVVL  HLA-B*35:01            nM            16200

====

Target: HLA-B*40:01
Test: IEDB peptide-MHC binding, purified MHC/direct/fluorescence; filed as Kd, often an IC50 or EC50 that approximates it; bounds were set here for any values at or beyond the usual limits of such assays
Details: source organism: Variola virus
pKd: −log10 of the molar value.
quantity kind: pKd

> print(dat)
    sequence       target  recorded.result
1  SQEDNHFSL  HLA-B*40:01             6.85

====

Target: HLA-A*02:01
Assay: IEDB peptide-MHC binding, purified MHC/direct/fluorescence; filed as Kd, often an IC50 or EC50 that approximates it; bounds were set here for any values at or beyond the usual limits of such assays
Details: source organism: Amur virus
pKd: −log10 of the molar value.
quantity kind: pKd

> print(dat)
    sequence  quantity.kind  recorded.result
1  GLYPAQIKA            pKd             8.46
2  KLLPDTAAV            pKd             8.68

====

Target: HLA-B*08:01
Assay: IEDB peptide-MHC binding, purified MHC/competitive/fluorescence; filed as Kd, often an IC50 or EC50 that approximates it; bounds were set here for any values at or beyond the usual limits of such assays
Details: source organism: Brucella canis ATCC 23365
pKd: −log10 of the molar value.
quantity kind: pKd

> print(dat)
    sequence       target  recorded.result
1  ETVWPFFYA  HLA-B*08:01           ≤ 5.30

====

Biological target: HLA-B*51:01
Experiment: IEDB peptide-MHC binding, purified MHC/competitive/fluorescence; filed as Kd, often an IC50 or EC50 that approximates it; bounds were set here for any values at or beyond the usual limits of such assays
Settings: source organism: Yersinia pestis KIM10+
pKd: −log10 of the molar value.
quantity kind: pKd

> print(dat)
    sequence  recorded.result
1  FPSVRYQNI             5.99

====

Target: HLA-B*46:01
Test: IEDB peptide-MHC binding, purified MHC/direct/fluorescence; filed as Kd, often an IC50 or EC50 that approximates it; bounds were set here for any values at or beyond the usual limits of such assays
Conditions: source organism: Bacillus cereus G9842
pKd: −log10 of the molar value.
quantity kind: pKd

> print(dat)
    sequence  recorded.result
1  TQIPRQMVL           ≤ 4.70
